System tested: H1 histamine receptor (Homo sapiens, UniProt P35367)
Sequence (P35367 whole entry): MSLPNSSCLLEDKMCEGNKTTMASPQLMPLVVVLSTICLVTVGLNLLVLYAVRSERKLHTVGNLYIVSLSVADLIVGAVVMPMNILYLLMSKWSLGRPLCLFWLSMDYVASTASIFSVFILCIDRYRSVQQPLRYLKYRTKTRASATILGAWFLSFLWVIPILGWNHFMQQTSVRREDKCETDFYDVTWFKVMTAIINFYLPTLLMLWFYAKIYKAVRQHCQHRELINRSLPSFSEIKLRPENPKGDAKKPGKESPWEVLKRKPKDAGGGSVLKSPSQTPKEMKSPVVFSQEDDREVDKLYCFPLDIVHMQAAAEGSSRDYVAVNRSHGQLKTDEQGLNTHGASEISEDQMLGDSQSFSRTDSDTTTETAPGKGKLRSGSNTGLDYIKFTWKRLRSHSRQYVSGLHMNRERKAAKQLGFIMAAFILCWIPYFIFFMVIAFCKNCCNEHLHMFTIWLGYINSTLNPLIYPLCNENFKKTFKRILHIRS
Protocol text: H1 histamine receptor radioligand binding assay (3H-pyrilamine)
Test settings: in words; read-out: affinity class for histamine H1 receptor

{"Molecule": "COc1ccc2c(c1)Cc1ccccc1C21CCN(Cc2ccccc2)C1 (centres unmarked) [Compound 16]", "Ki": "≤ 100 nM"}
{"Molecule": "COc1ccc2c(c1)Cc1ccccc1C21CCNC1 (centres unmarked) [Compound 17]", "Ki": "≤ 100 nM"}
{"Molecule": "c1ccc2c(c1)Oc1ccccc1C21CCNC1 [Compound 30, Spiro[xanthenyl]-9,3′-pyrrolidine]", "Ki": "≤ 100 nM"}
{"Molecule": "c1ccc2c(c1)Cc1ccccc1C21CCNC1 [Compound 5]", "Ki": "≤ 100 nM"}
{"Molecule": "c1ccc2c(c1)Sc1ccccc1C21CCNC1 [Compound 36, Spiro[thioxanthenyl]-9,3′-pyrrolidine]", "Ki": "≤ 100 nM"}

====

System tested: 5-HT2c receptor (Homo sapiens, UniProt P28335)
Sequence (P28335 33-458): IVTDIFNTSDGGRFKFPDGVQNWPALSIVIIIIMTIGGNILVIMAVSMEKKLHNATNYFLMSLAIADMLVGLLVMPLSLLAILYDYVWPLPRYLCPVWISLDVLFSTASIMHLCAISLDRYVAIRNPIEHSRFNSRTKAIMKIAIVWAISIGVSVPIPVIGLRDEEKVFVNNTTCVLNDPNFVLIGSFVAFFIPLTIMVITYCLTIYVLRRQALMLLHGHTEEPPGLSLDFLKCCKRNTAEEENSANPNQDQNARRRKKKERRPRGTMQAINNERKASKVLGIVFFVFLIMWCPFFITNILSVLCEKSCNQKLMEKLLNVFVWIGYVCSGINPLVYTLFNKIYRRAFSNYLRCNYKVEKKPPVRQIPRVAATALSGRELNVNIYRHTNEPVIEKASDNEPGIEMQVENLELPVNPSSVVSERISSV
Protocol text: Affinity for 5-HT2c receptor
Assay type: binding
pKi: −log10 of the molar value.

{"Molecule": "c1ccc2c(c1)Cc1ccccc1C21CCNC1 [Compound 5]", "pKi": "6.30 to 9.00"}

====

System tested: 5-HT2A serotonin receptor (Homo sapiens, UniProt P28223)
Sequence (P28223 whole entry): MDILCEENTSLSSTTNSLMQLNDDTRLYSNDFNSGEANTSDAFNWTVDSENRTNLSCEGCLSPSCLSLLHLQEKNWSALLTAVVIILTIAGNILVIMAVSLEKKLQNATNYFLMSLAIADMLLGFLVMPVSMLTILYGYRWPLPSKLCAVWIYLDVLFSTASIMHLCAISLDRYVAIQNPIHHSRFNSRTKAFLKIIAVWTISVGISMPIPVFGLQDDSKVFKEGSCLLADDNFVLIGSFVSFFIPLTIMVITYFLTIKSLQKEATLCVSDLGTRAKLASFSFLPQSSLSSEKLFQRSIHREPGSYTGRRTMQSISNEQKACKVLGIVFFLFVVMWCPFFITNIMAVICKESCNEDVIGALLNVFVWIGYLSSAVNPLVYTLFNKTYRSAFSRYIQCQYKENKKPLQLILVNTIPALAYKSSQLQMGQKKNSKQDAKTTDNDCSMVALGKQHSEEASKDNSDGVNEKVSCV

{"Compound": "c1ccc(-c2ccc3c(c2)Cc2ccccc2C32CCNC2)cc1 (stereo not shown)", "Readout units": "nM", "Ki": 18}
{"Compound": "COc1ccc2c(c1)Cc1ccccc1C21CCNC1 (stereo not shown)", "Readout units": "nM", "Ki": 3.7}
{"Compound": "CN1CCC2(C1)c1ccccc1Cc1ccccc12", "Readout units": "nM", "Ki": 46}
{"Compound": "c1ccc(CCCc2ccc3c(c2)Cc2ccccc2C32CCN(Cc3ccccc3)C2)cc1 (stereo not shown)", "Readout units": "nM", "Ki": 998}
{"Compound": "COc1ccc2c(c1)Cc1ccccc1C21CCN(Cc2ccccc2)C1 (stereo not shown)", "Readout units": "nM", "Ki": 1000}
{"Compound": "c1ccc2c(c1)Oc1ccccc1C21CCNC1 [Compound 30, Spiro[xanthenyl]-9,3′-pyrrolidine]", "Readout units": "nM", "Ki": 40}
{"Compound": "CCCCCCc1ccc2c(c1)Cc1ccccc1C21CCNC1 (stereo not shown)", "Readout units": "nM", "Ki": 6}

====

System tested: UniProtKB P28335
Protocol text: Affinity for 5-HT2c receptor
Format: binding
Test settings: read-out: Ki for 5-HT2c receptor

{"Smiles structure": "c1ccc2c(c1)Cc1ccccc1C21CCNC1", "Ki (nM)": 24}

====

System tested: 5-HT2 receptor (Homo sapiens)
Sequence (P28223 whole entry): as the sequence (P28223 whole entry) above
Protocol text: Affinity for 5-HT2 receptors
Format: binding
Test settings: read-out: Ki for 5-HT2 receptors

{"Compound": "c1ccc2c(c1)Cc1ccccc1C21CCNC1 [Compound 5]", "Ki / nM": 4}

====

System tested: dopamine D2 receptor (Homo sapiens, UniProt P14416)
Sequence (P14416 whole entry, species assumed): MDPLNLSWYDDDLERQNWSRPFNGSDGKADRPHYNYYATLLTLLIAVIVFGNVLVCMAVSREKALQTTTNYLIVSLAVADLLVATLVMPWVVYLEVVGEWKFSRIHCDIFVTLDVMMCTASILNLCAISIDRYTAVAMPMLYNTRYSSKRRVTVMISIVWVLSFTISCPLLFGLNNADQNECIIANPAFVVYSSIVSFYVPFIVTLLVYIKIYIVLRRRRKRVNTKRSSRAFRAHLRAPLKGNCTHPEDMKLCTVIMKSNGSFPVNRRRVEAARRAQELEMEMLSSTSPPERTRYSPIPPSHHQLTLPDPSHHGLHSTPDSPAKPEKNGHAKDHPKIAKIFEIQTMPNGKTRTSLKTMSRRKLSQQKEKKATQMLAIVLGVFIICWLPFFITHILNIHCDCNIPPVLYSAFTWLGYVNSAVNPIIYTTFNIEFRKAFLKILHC
Protocol text: Affinity for dopamine D2 receptor
pKi: −log10 of the molar value.

{"Smiles structure": "c1ccc2c(c1)Cc1ccccc1C21CCNC1", "pKi": 5.30}
